test.details: yeast display, Sf9 membrane polyspecificity reagent, FACS + sequencing; frameworks hold sequencing errors
measurement.kind: polyreactivity (PSR sort gate)

>  <macromolecule.sequence>
QVQLVESGGGLVQAGGSLRLSCAASGSTFRYYAMGWYRQAPGKERELVAAISGSGGRTYYADSVKGRFTISRDNAKNTVYLQMYSLKPEDTAVYYCAASRYQFYWGQGTQVTVSS

>  <polyreactivity (PSR sort gate)>
high polyreactivity

$$$$
>  <macromolecule.sequence>
QVQLVESGGGLVQAGGSLRLSCAASGRTFGGYAMGWYRQAPGKERELVADITSSGSTTYYADSVKGRFTISRDNSKNNVYLERYSLKPEDTAVYYCNAEGYSPVLYDYWGQGTQVTVSS

>  <polyreactivity (PSR sort gate)>
low polyreactivity

$$$$
>  <macromolecule.sequence>
QVQHVESGGGLVQAGGSLRLSCAASGRTFSYYTMGWYRQAPGKERELVARISNRGTNTYYADSVKGRFTISRDNAKYTVYLQMNSLKPEDYAVYYCAKYYYTSIVGYDSWGQGTQVTVSS

>  <polyreactivity (PSR sort gate)>
low polyreactivity

$$$$
>  <macromolecule.sequence>
QVQLVESGGGLVQAGGSLRLSCAASGRTFYSYVMGWYRQAPGKEREVVAAIPRSGGSTNYADSVKGRFTISRDNAKNTVYFQMHSRKPEDTAVYYCASRAGRTLRTHYDYWGQGTQGTVSS

>  <polyreactivity (PSR sort gate)>
high polyreactivity

$$$$
>  <macromolecule.sequence>
QVQLVESGGGLVQAGGSLRLSCAASGITFVQNVMGWYRQAPGKEREFVAGINYSGGSTYYADSVKGRFTISRDNAKNTVYLQMNSLKPEDTAVYYCAADYDRYTYAFVYRYRRMYYWGQGTQVTVSS

>  <polyreactivity (PSR sort gate)>
low polyreactivity

$$$$
>  <macromolecule.sequence>
QVQLVESGGGLVQAGGSLRLSCAASGYIFSINAMGWYRQAPGKERELVAAITSSGGSTYYADSVKGRFTISRDNAKNTVYLQMNSLKPEDTAVYYCNAYVRRTRDYDYWGQGTQVTVSS

>  <polyreactivity (PSR sort gate)>
high polyreactivity

$$$$

Ask: Please indicate polyreactivity (PSR sort gate) recorded for "QVQLVESRGGLVQAGGSLRLSCAASGFTFYYYAMGWYRQAPGKERELVAAISGRGGSTYYADSVKGRFTISRDNAKNSVYLQMNSLKPEDTAVYYCAAVPIVRLEYWGQGTQVTVSS"
Result: high polyreactivity

Ask: Determine from records and report polyreactivity (PSR sort gate) for "QDQHVESVGGLVQAGGRLRLSSAASGLIFFDSPMVSDRQAPGKERELVAAISTTGGSTYYADSVKGRCTISRDNAKNSVYLEMNSLKPEDTAVYYCNARFVHHSWGTNYYWGQGTQVTVSS"
Result: high polyreactivity

Ask: Consider the sequence "QVQLQESGGGLVQAGGSLRLSCAASGSIFNVVDMGLYRQAPAKEREFVATIGEGGNTYYADSLKGSFTISRDNAKNTVYLQMNSLKPEDTAVYFYAVVLGTSFRYTYWGQGTQVTVSS" and give its recorded polyreactivity (PSR sort gate).
Result: low polyreactivity

Ask: Complete the entry with polyreactivity (PSR sort gate) for "QVQLVESGGGLVQAGGSLRLSCDASGFIFKGNAMGWYRHAPRKERELVAAITNRGGGTYYADSVKGRFTISRDNAKNTVYLQMNSLKPEDTAVYYCAKAYTRPFHPYDYWGQGTQVTVSS"
Result: high polyreactivity

Ask: Dear colleague, please send me the reported polyreactivity (PSR sort gate) for "QVQLEESGGGLVQAGGSLRLSCAASGFTFGRYPLGWYRQAPGKERELVAAITRGSGGTYYADSVKGRFTISRDNAKNTVYLQMNSLKPEDTAVYYCNTASYRGYDYWGQGTQVTVSS" when you can.
Result: high polyreactivity
